Numbers sourced from ChEMBL document CHEMBL4229301.

Assay: Luciferase/luciferin-expressing antifolate-resistant parasites were used to infect a culture of HepG2 cells that were pre-incubated with compounds. Infected hepatocytes emit light due to the luciferase reaction. Assay results are presented as the percent inhibition of light emission compared to control. […]
Assay type: functional
Conditions: Plasmodium berghei, sporozoite; PBLUC_HILL_SLOPE 1.68; PBLUC_R_SQUARED 0.822; read-out: LUCIFERASE INFECTION ASSAY - IC50
readout-type: IC50 (µM)
Give a bare numeral; the unit µM is implied.

Tell me the measured IC50 of c1ccc(CNc2nc(Nc3ccccc3)nc3ccccc23)cc1 , please. 0.476
